Parameter: pEC50. Scope: all listed entries.
# experimental-target: Lysophosphatidic acid receptor 3 (Rattus norvegicus, UniProt Q8K5E0)
# Sequence (Q8K5E0 whole entry): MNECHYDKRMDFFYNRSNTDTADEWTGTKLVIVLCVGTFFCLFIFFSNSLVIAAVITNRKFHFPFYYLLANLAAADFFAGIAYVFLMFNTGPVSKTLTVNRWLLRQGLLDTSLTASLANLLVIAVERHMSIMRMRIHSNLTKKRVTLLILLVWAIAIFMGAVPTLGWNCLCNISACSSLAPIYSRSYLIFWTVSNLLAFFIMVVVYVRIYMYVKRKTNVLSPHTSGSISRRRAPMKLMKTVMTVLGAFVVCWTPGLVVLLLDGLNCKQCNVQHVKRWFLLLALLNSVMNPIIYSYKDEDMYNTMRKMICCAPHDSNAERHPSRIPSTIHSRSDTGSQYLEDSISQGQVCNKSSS
# protocol-description: Activity at LPA3 receptor in RH7777 rat hepatoma cell line
Answer as the number alone; pEC50 is minus log10 of concentration in mol/L.

| compound | result |
| --- | --- |
| CCCCCCC/C=C/CCCCCCCC[C@H]1OC[C@@H](COP(O)(O)=S)O1 | 6.58 |

Asked: Give reported pEC50 value for CCCCCCC/C=C/CCCCCCCCC1OCC(COP(O)(O)=S)O1 (configuration not stated)
Given back: 6.19

Asked: Give reported pEC50 value for C/C=C/C/C=C/C/C=C/CCCCCCCCC1OCC(COP(=O)(O)O)O1 (configuration not stated)
Given back: 5.12

Asked: Give reported pEC50 value for `CCCCCCC/C=C/CCCCCCCC[C@@H]1OC[C@@H](COP(O)(O)=S)O1`
Given back: 6.69

Asked: Give reported pEC50 value for `CCCCCCC/C=C/CCCCCCCC[C@@H]1OC[C@H](COP(O)(O)=S)O1`
Given back: 6.71

Asked: Give reported pEC50 value for CCCCCCCCc1ccc(CCCCCCC2OCC(COP(O)(O)=S)O2)cc1 (configuration not stated)
Given back: 6.16

Asked: Give reported pEC50 value for `CCCCCCC/C=C/CCCCCCCC[C@H]1OC[C@H](COP(O)(O)=S)O1`
Given back: 6.90

---

# experimental-target: Lysophosphatidic acid receptor 3 (Rattus norvegicus) (UniProt Q8K5E0)
# protocol-description: Activity at LPA3 receptor in RH7777 rat hepatoma cell line
# Assay type: cell-based
Parameter: Emax. Scope: all listed entries.
Supply the numeric figure in %, leaving out any unit text.

Worked examples follow.
| compound | Emax / % |
| --- | --- |
| CCCCCCC/C=C/CCCCCCCCC1OCC(COP(O)(O)=S)O1 (configuration not stated) | 73 |
| CCCCCCC/C=C/CCCCCCCC[C@H]1OC[C@@H](COP(O)(O)=S)O1 | 78 |
| CCCCCCCCc1ccc(CCCCCCC2OCC(COP(O)(O)=S)O2)cc1 (configuration not stated) | 87 |

Asked: Give reported Emax value for `CCCCCCC/C=C/CCCCCCCC[C@@H]1OC[C@H](COP(O)(O)=S)O1`
Given back: 113

Asked: Give reported Emax value for C/C=C/C/C=C/C/C=C/CCCCCCCCC1OCC(COP(=O)(O)O)O1 (configuration not stated)
Given back: 29

Asked: Give reported Emax value for `CCCCCCC/C=C/CCCCCCCC[C@H]1OC[C@H](COP(O)(O)=S)O1`
Given back: 127

Asked: Give reported Emax value for `CCCCCCC/C=C/CCCCCCCC[C@@H]1OC[C@@H](COP(O)(O)=S)O1`
Given back: 102

---

# experimental-target: Lysophosphatidic acid receptor 3 (Rattus norvegicus)
# Sequence (Q8K5E0 whole entry): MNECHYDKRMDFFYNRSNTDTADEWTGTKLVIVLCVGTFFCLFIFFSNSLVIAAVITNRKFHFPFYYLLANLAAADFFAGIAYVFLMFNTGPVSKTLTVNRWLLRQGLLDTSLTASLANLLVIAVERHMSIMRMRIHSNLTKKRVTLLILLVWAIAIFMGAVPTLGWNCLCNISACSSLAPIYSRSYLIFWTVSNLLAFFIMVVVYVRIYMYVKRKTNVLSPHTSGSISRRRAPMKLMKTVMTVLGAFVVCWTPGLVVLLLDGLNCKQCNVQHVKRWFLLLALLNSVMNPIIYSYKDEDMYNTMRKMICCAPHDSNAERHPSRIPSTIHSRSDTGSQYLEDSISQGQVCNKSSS
# protocol-description: Activity at LPA3 receptor in RH7777 rat hepatoma cell line
observable: pIC50
Answer as the number alone; pIC50 is minus log10 of concentration in mol/L.

Worked examples follow.
| molecule | pIC50 |
| --- | --- |
| CCCCCCCCc1ccc(CCCCCCC2OCC(COP(=O)(O)O)O2)cc1 (centres undefined) | 6.30 |
| CCCCCCC/C=C/CCCCCCCC[C@@H]1OC[C@@H](COP(=O)(O)O)O1 | 6.32 |
| CCCCCCC/C=C/CCCCCCCC[C@@H]1OC[C@H](COP(=O)(O)O)O1 | 6.87 |

Asked: Give reported pIC50 value for `CCCCCCC/C=C/CCCCCCCC[C@H]1OC[C@@H](COP(=O)(O)O)O1`
Given back: 6.68

---

# experimental-target: Lysophosphatidic acid receptor 3 (Rattus norvegicus, UniProt Q8K5E0)
# protocol-description: Activity at LPA3 receptor in RH7777 rat hepatoma cell line
Parameter: pKi. Scope: all listed entries.
Answer as the number alone; pKi is minus log10 of concentration in mol/L.

| compound | experimental-target | pKi |
| --- | --- | --- |
| CCCCCCC/C=C/CCCCCCCC[C@H]1OC[C@@H](COP(=O)(O)O)O1 | Lysophosphatidic acid receptor 3 (Rattus norvegicus, UniProt Q8K5E0) | 7.11 |
| CCCCCCC/C=C/CCCCCCCC[C@@H]1OC[C@H](COP(=O)(O)O)O1 | Lysophosphatidic acid receptor 3 (Rattus norvegicus, UniProt Q8K5E0) | 7.08 |
| CCCCCCCCc1ccc(CCCCCCC2OCC(COP(=O)(O)O)O2)cc1 (centres undefined) | Lysophosphatidic acid receptor 3 (Rattus norvegicus, UniProt Q8K5E0) | 6.77 |

Now look at this one.
Asked: Give reported pKi value for `CCCCCCC/C=C/CCCCCCCC[C@@H]1OC[C@@H](COP(=O)(O)O)O1`
Given back: 6.62

---

# experimental-target: UniProt Q9HBW0
# protocol-description: Activity at LPA2 receptor in RH7777 rat hepatoma cell line
observable: pIC50
Answer as the number alone; pIC50 is minus log10 of concentration in mol/L.

Asked: Give reported pIC50 value for CCCCCCCCCCCCC1OCC(COP(=O)(O)O)O1 (stereo unspecified)
Given back: 5.13

---

# experimental-target: Lysophosphatidic acid receptor 1 (Rattus norvegicus, UniProt P61794)
# Sequence (P61794 whole entry): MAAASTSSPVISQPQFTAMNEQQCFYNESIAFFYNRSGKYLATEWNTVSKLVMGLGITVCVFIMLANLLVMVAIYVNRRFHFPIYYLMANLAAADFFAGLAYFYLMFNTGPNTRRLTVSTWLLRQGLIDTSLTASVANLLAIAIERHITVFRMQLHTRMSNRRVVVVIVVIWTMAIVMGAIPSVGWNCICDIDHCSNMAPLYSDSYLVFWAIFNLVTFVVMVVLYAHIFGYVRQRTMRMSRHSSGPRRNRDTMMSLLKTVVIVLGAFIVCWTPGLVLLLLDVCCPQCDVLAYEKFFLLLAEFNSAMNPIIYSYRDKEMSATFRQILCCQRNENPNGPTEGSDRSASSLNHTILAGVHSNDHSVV
# protocol-description: Activity at LPA1 receptor in RH7777 rat hepatoma cell line
observable: Ki (nM)
Supply the numeric figure in nM, leaving out any unit text.

Worked examples follow.
| molecule | observable | result |
| --- | --- | --- |
| CCCCCCC/C=C/CCCCCCCCC1OCC(COP(=O)(O)O)O1 (stereo not drawn) | Ki | 497 |
| CCCCCCCCc1ccc(CCCCCCC2OCC(COP(=O)(O)O)O2)cc1 (stereo not drawn) | Ki | 1930 |

Now look at this one.
Asked: Give reported Ki value for CCCCCCCCCCCCC1OCC(COP(=O)(O)O)O1 (stereo not drawn)
Given back: 652

---

Parameter: Emax. Scope: all listed entries.
# experimental-target: Lysophosphatidic acid receptor 2 (Homo sapiens, UniProt Q9HBW0)
# Sequence (Q9HBW0 whole entry): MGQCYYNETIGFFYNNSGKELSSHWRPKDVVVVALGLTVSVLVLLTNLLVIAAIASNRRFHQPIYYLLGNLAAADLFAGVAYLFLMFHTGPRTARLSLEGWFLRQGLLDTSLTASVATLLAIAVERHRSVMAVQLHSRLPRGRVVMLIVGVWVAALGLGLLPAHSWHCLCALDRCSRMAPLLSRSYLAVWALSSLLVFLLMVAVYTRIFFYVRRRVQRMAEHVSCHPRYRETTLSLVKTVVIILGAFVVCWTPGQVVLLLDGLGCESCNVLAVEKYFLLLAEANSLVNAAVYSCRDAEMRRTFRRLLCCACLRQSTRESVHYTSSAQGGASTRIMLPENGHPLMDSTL
# protocol-description: Activity at LPA2 receptor in RH7777 rat hepatoma cell line
# Type: cell-based
Supply the numeric figure in %, leaving out any unit text.

Worked examples follow.
| compound | Emax (%) |
| --- | --- |
| CCCCCCC/C=C/CCCCCCCCC1OCC(COP(O)(O)=S)O1 (stereo not drawn) | 87 |
| CCCCCCC/C=C/CCCCCCCC[C@@H]1OC[C@H](COP(O)(O)=S)O1 | 85 |
| CCCCCCC/C=C/CCCCCCCC[C@H]1OC[C@H](COP(=O)(O)O)O1 | 39 |
| CCCCCCC/C=C/CCCCCCCC[C@H]1OC[C@@H](COP(O)(O)=S)O1 | 87 |
| CCCCCCC/C=C/CCCCCCCC[C@@H]1OC[C@H](COP(=O)(O)O)O1 | 42 |
| CCCCCCC/C=C/CCCCCCCC[C@H]1OC[C@H](COP(O)(O)=S)O1 | 77 |
| CCCCCCC/C=C/CCCCCCCC[C@@H]1OC[C@@H](COP(O)(O)=S)O1 | 72 |

Now look at this one.
Asked: Give reported Emax value for C/C=C/C/C=C/C/C=C/CCCCCCCCC1OCC(COP(=O)(O)O)O1 (stereo not drawn)
Given back: 51

---

So I've got pIC50 readings for Autotaxin (Homo sapiens, UniProt Q13822), take a look.
Answer as the number alone; pIC50 is minus log10 of concentration in mol/L.

Worked examples follow.
| smiles-notation | pIC50 |
| --- | --- |
| CCCCCCC/C=C/CCCCCCCC[C@@H]1OC[C@H](COP(O)(O)=S)O1 | 6.46 |
| CCCCCCC/C=C/CCCCCCCC[C@@H]1OC[C@@H](COP(O)(O)=S)O1 | 6.44 |
| CCCCCCC/C=C/CCCCCCCC[C@H]1OC[C@H](COP(=O)(O)O)O1 | 6.92 |

Now look at this one.
Asked: Give reported pIC50 value for `CCCCCCC/C=C/CCCCCCCC[C@H]1OC[C@@H](COP(O)(O)=S)O1`
Given back: 6.39
